The values you see were collected from paper PMC6858373.

Listed here: compounds with reported Toxicity Assay Z-score (CTB cell viability) for Clone V cells.

Reference set, count: 2
compound=O=c1[nH]nc(Sc2ncc([N+](=O)[O-])s2)n1-c1ccc2c(c1)OCCO2 target_of_assay="Clone V cells" reported_measurement=-2.41
compound="Cc1ccc([N+](=O)[O-])cc1S(=O)(=O)N(C)/N=C/c1cnc2ccc(Br)cn12 [PIK 75, reference compound]" target_of_assay="Clone V cells" reported_measurement=0.22

Field: next compound
What Toxicity Assay Z-score (CTB cell viability) value was documented for this compound, "Fc1ccc(Cl)cc1-c1nc(Nc2ccncc2)c2nccnc2n1" ?
1.06

* * *

Target Of Assay: FGF14:Nav1.6 C-tail complex (Homo sapiens, UniProt Q92915+Q9UQD0)
Construct: polymerase chain reaction (PCR) amplification of the FGF14 open reading frame (nt 1–855); C-terminal fragment of Nav1.6 (amino acids 1763–1976) fused with CD4ΔC-tail (amino acids 1–395); expressed in transfected cells
Sequence (Q92915 1-252 isoform Q92915-2): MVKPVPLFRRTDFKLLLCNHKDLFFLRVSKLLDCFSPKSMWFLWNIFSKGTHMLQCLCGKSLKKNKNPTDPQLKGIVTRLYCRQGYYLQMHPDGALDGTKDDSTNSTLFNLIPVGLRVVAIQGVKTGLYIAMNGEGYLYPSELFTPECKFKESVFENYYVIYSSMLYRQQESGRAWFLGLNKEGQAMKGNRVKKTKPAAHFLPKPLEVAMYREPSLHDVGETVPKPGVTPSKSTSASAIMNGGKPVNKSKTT
Sequence (Q9UQD0 1763-1976 limits assumed): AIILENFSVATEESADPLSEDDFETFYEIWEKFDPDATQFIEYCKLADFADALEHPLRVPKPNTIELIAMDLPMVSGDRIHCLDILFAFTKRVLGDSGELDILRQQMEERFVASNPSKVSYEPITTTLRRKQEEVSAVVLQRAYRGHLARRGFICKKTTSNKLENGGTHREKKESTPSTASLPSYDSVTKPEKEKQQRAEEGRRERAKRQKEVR
Test: Split-luciferase complementation assay (LCA) in Clone V double stable HEK293 cells
Assay type: cell-based
Reported Conditions: CC_NCI screening; LCA luminescence, biological replicate Set 1; normalized to on-plate 0.3% DMSO controls (n=16 per plate)
Response field label takes Criterion met when Split Luciferase Assay % Lum Set 1 is strictly below 90% and Criterion not met in all other cases.

compound=CN(NC(=O)CC(=O)NN(C)C(=S)c1ccccc1)C(=S)c1ccccc1 label="Criterion met"
compound="Cc1cn(-c2cc(NC(=O)c3ccc(C)c(Nc4nccc(-c5cccnc5)n4)c3)cc(C(F)(F)F)c2)cn1 [Nilotinib]" label="Criterion not met"
compound=Cc1cccc(Nc2nc(-c3ccncc3)cs2)c1 label="Criterion met"
compound=N#Cc1ccc(C(c2ccc(C#N)cc2)n2cncn2)cc1 label="Criterion not met"
compound="COc1cc([C@@H]2c3cc4c(cc3[C@@H](O[C@@H]3O[C@@H]5CO[C@@H](C)O[C@H]5[C@H](O)[C@H]3O)[C@H]3COC(=O)[C@H]23)OCO4)cc(OC)c1O [Etoposide]" label="Criterion met"

Confirm or reject: Split Luciferase Assay % Lum Set 1 of CNC(=O)c1ccccc1Sc1ccc2c(/C=C/c3ccccn3)n[nH]c2c1 [AXITINIB] lies strictly below 90%
Criterion not met

What do we get for "Cc1[nH]c(/C=C2\C(=O)Nc3ccc(S(=O)(=O)N(C)c4cccc(Cl)c4)cc32)c(C)c1C(=O)N1CCN(C)CC1" ?
Criterion met

What do we get for "CN(C)CC[C@H](CSc1ccccc1)Nc1ccc(S(=O)(=O)NC(=O)c2ccc(N3CCN(Cc4ccccc4-c4ccc(Cl)cc4)CC3)cc2)cc1[N+](=O)[O-]" ?
Criterion not met

What do we get for "CCCCCCCCCCCCCCCCCCOP(=O)([O-])OC1CC[N+](C)(C)CC1" ?
Criterion met

* * *

Target Of Assay: full-length P. pyralis luciferase (Photinus pyralis, UniProt P08659, K549A/L550V/N119G/N50D/S548I)
Sequence (P08659 whole entry N50D/N119G/S548I/K549A/L550V, looked up): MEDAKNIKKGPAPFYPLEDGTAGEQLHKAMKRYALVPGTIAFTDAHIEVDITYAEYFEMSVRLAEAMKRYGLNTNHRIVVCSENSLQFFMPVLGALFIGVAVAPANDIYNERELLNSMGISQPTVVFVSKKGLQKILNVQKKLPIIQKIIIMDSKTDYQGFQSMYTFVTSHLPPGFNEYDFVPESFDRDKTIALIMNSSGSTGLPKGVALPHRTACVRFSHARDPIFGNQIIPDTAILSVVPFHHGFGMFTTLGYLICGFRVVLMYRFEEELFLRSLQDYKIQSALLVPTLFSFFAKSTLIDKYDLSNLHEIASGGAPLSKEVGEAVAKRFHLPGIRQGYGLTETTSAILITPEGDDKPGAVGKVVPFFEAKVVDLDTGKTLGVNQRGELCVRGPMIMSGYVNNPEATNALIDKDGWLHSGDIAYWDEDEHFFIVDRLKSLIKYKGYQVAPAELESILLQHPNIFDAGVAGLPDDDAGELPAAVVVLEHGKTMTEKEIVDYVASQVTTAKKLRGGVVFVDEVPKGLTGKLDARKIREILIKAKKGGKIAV
Type: cell-based
Reported Conditions: CC_NCI screening; normalized to on-plate 0.3% DMSO controls
Where a name gives a salt, the structure may show the parent alone.
Each entry below lists one item and its recorded Luciferase Assay % Lum (full-length luciferase counter-screen) value.
Kindly provide the numeric value in % only, without the unit symbol.

compound=N#Cc1c(O)c2c(-c3ccc(-c4ccccc4O)cc3)csc2[nH]c1=O reported_measurement=79.85
compound=CC(C)C[C@H](NC(=O)[C@H](CCc1ccccc1)NC(=O)CN1CCOCC1)C(=O)N[C@@H](Cc1ccccc1)C(=O)N[C@@H](CC(C)C)C(=O)[C@@]1(C)CO1 reported_measurement=97.18
compound="CC[C@]1(O)C[C@@H]2CN(CCc3c([nH]c4ccccc34)[C@@](C(=O)OC)(c3cc4c(cc3OC)N(C)[C@H]3[C@@](O)(C(=O)OC)[C@H](OC(C)=O)[C@]5(CC)C=CCN6CC[C@]43[C@@H]65)C2)C1 [Vinblastine sulfate]" reported_measurement=109.75
compound="CN(Cc1cnc2nc(N)nc(N)c2n1)c1ccc(C(=O)N[C@@H](CCC(=O)O)C(=O)O)cc1 [Methotrexate]" reported_measurement=94.27
compound=CS(=O)(=O)OCCCCOS(C)(=O)=O reported_measurement=97.98
compound="Cc1ccc([N+](=O)[O-])cc1S(=O)(=O)N(C)/N=C/c1cnc2ccc(Br)cn12 [PIK 75, reference compound]" reported_measurement=87.68
compound=CS(=O)(=O)c1ccc(C2=C(c3ccccc3)C(=O)OC2)cc1 reported_measurement=102.66
compound="O=C(O)CCCc1ccc(N(CCCl)CCCl)cc1 [Chlorambucil, reference compound]" reported_measurement=97.90

What Luciferase Assay % Lum (full-length luciferase counter-screen) value was documented for this compound, "Nc1ccccc1NC(=O)c1ccc(CNc2nccc(-c3cccnc3)n2)cc1" ?
90.12

What do we get for Nc1ccn([C@@H]2O[C@H](CO)[C@@H](O)C2(F)F)c(=O)n1 [Gemcitabine hydrochloride] ?
102.42

What do we get for NCC(=O)CCC(=O)O [Aminolevulinic acid hydrochloride] ?
100.02

What do we get for "CCCCCCCCc1ccc(CCC(N)(CO)CO)cc1" ?
94.97

What do we get for "COc1cc(O)c2c(c1)[C@H]1O[C@@H]1C[C@H](O)[C@H](O)C(=O)/C=C\C[C@H](C)OC2=O" ?
72.32
